# experimental.target: 5-hydroxytryptamine receptor 2A (Homo sapiens) (UniProt P28223)
# Sequence (P28223 whole entry, looked up): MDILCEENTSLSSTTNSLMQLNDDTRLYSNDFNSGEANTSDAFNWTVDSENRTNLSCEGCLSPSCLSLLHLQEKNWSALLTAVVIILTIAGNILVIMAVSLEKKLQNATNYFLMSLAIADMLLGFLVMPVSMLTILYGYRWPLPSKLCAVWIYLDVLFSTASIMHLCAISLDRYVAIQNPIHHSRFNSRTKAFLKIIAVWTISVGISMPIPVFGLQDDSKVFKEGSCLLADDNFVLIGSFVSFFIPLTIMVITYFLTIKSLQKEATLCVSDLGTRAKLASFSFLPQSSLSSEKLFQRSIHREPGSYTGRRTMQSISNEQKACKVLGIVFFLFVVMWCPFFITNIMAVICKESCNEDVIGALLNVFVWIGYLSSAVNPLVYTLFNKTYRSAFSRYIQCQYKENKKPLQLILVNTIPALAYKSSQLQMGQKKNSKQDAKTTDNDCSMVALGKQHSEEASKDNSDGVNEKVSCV
# method.notes: 5-hydroxytryptamine receptor 2A (HTR2A) small molecule agonists, cell-based qHTS assay (AID 1963587); note: nearly all actives have a fitted effect of over 30% in size
# assay.setup: HTR2A-CHO cells, calcium flux fluorescence, agonist mode; series mostly up to 76.8 µM
Records with an inconclusive call do not appear. Active and inactive are the calls of the source. Calls come from the whole dose curve.
Bench note: report the call from y (active), n (inactive)

Example entries and their recorded answers appear below.
compound: CCCC(=O)O[C@]1(C(=O)CO)CC[C@H]2[C@@H]3CCC4=CC(=O)CC[C@]4(C)[C@H]3[C@@H](O)C[C@@]21C
group: n
//
compound: CC(C(=O)O)c1ccc2c(c1)[nH]c1ccc(Cl)cc12 (stereo not given)
group: n
//
compound: CC(=O)NC1(c2cccc(F)c2)CCN(CC[C@@]2(c3ccc(Cl)c(Cl)c3)CN(c3ccccc3)C(=O)CO2)CC1
group: n

Kindly provide the recorded test outcome for the following compound: "C=C1c2cccc(O)c2C(O)=C2C(=O)[C@]3(O)C(O)=C(C(N)=O)C(=O)[C@@H](N(C)C)[C@@H]3[C@@H](O)[C@H]12" n

Kindly provide the recorded test outcome for the following compound: "[O-][n+]1ccccc1SSc1cccc[n+]1[O-]" y

----------
# experimental.target: 5-hydroxytryptamine receptor 2A (Homo sapiens) (UniProt P28223)
# method.notes: 5-hydroxytryptamine receptor 2A (HTR2A) small molecule agonists, cell-based qHTS assay (AID 1963587); note: nearly all actives have a fitted effect of over 30% in size
# assay.setup: HTR2A-CHO cells, calcium flux fluorescence, agonist mode; series mostly up to 76.8 µM
Inconclusive results are not listed. Active and inactive are the calls of the source. Calls follow the shape of the full dose curve.
Bench note: report the call from 1.0 (active), 0.0 (inactive)

compound: Nc1nc(-c2ccccc2)cs1
group: 0.0

Kindly provide the recorded test outcome for the following compound: "Cc1cc2nc(N)sc2cc1C" 0.0

Kindly provide the recorded test outcome for the following compound: "CCCCCCCCCCC[C@@H](C[C@@H]1OC(=O)[C@H]1CCCCCC)OC(=O)[C@H](CC(C)C)NC=O" 0.0

Kindly provide the recorded test outcome for the following compound: CCNc1nc(NC(C)CC)nc(OC)n1 (centres undefined) 0.0

----------
# experimental.target: Muscarinic acetylcholine receptor M1 (Homo sapiens) (UniProt P11229)
# Sequence (P11229 whole entry, looked up): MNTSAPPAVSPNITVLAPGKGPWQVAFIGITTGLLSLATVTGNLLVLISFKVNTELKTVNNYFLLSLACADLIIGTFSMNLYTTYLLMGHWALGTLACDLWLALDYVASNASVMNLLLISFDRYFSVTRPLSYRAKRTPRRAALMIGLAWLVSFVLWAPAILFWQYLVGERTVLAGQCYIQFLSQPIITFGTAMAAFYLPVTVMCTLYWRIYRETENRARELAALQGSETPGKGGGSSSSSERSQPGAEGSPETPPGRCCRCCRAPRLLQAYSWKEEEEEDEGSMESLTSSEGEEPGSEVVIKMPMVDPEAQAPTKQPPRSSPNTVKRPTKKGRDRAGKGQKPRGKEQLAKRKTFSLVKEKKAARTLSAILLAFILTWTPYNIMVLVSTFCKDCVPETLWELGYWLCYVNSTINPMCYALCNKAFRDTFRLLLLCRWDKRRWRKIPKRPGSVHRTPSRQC
# method.notes: Cholinergic receptor muscarinic 1 (CHRM1) small molecule agonists, cell-based qHTS assay (AID 1963589); note: % is set by controls: 0 for no effect and ±100 for the full control effect; nearly all actives have a fitted effect of over 35% in size
# assay.setup: CHRM1-CHO cells, agonist mode, calcium flux fluorescence; series mostly up to 76.8 µM
Activity calls are given as the source filed them. Calls come from the whole dose curve.
assay.metric: activation

molecule: OCCOc1cccc(OCCO)c1
activation: inactive
//
molecule: CC(=O)Nc1ccc(/C=N/NC(N)=S)cc1
activation: inactive
//
molecule: CCN(CC)CCNc1ccc(CO)c2sc3ccccc3c(=O)c12
activation: inactive
//
molecule: Cc1cc(O)c2ccccc2c1O
activation: inactive
//
molecule: CCCCCC(CO)CCC (stereo unspecified)
activation: inactive

Any idea what its activation is? The molecule is "SC1CCCC1" inactive

Any idea what its activation is? The molecule is "Sc1nc(S)nc(S)n1" inactive

Any idea what its activation is? The molecule is "NC(N)=NN=C(/C=C/c1ccc([N+](=O)[O-])o1)/C=C/c1ccc([N+](=O)[O-])o1" inactive

Any idea what its activation is? The molecule is "CC(C)c1ccccc1N" inactive

Any idea what its activation is? The molecule is "CCC(CN)=C(c1ccccc1)c1ccccc1" inactive

Any idea what its activation is? The molecule is "O=S(=O)(O)c1cc(S(=O)(=O)O)c2c(N=Nc3ccccc3)c(O)ccc2c1" inactive

----------
# experimental.target: Gonadotropin-releasing hormone receptor (Homo sapiens)
# method.notes: Human gonadotropin-releasing hormone receptor (GnRHR) small molecule agonists, calcium flux assay in GnRHR-HEK293 cells (AID 1920063); note: % is set by controls: 0 for no effect and ±100 for the full control effect; nearly all actives have a fitted effect of over 35% in size
# assay.setup: calcium flux fluorescence, agonist mode; series mostly up to 57.6 µM
The source made the active and inactive calls. Calls follow the shape of the full dose curve.
assay.metric: activity change

These solved cases illustrate the format of a correct answer.
molecule: C#Cc1cccc(Nc2ncnc3cc(OCCOC)c(OCCOC)cc23)c1
activity change: inactive
//
molecule: O=Cc1cc(O)ccc1Br
activity change: inactive
//
molecule: OCc1c[nH]c2ccccc12
activity change: inactive
//
molecule: CCN1CCN(C(=O)N[C@@H](C(=O)N[C@@H]2C(=O)N3[C@@H]2SC(C)(C)[C@H]3C(=O)O)c2ccccc2)C(=O)C1=O
activity change: inactive

Any idea what its activity change is? The molecule is "CCN(Cc1cccc(S(=O)(=O)O)c1)c1ccc(C(=C2C=CC(=[N+](CC)Cc3cccc(S(=O)(=O)[O-])c3)C=C2)c2ccccc2)cc1" inactive

Any idea what its activity change is? The molecule is "CC(C)c1nc(CN(C)C(=O)N[C@H](C(=O)N[C@@H](Cc2ccccc2)C[C@H](O)[C@H](Cc2ccccc2)NC(=O)OCc2cncs2)C(C)C)cs1" inactive

Any idea what its activity change is? The molecule is "OC[C@H]1O[C@@H](n2cnc3c(=S)nc[nH]c32)[C@H](O)[C@@H]1O" inactive

Any idea what its activity change is? The molecule is "CN1CCC(=C2c3ccccc3CCc3cccnc32)CC1" inactive

Any idea what its activity change is? The molecule is "CSc1ccc(Oc2ccc(S(N)(=O)=O)cc2CN(C)C)cc1C" inactive

Any idea what its activity change is? The molecule is "Nc1ccc(N=Nc2ccc(N)cc2)cc1" inactive

----------
# method.notes: p53 small molecule agonists, cell-based qHTS assay (AID 1963582); note: % is set by controls: 0 for no effect and ±100 for the full control effect
# assay.setup: HCT-116 p53RE-bla reporter, beta-lactamase FRET ratio, 16 h; series mostly up to 66 µM
Results filed as inconclusive are left out. Calls of active or inactive are those of the source. Calls come from the whole dose curve; as a rule, active = well fitted activation curve with a large enough effect in the signal ratio in the repeat runs (not every such curve was filed as active); inconclusive = weak or mixed curves; inactive = flat fitted curve, though single readings scatter; the % refers to the signal ratio.
assay.metric: activation

These solved cases illustrate the format of a correct answer.
molecule: CC(C)CCCCCCCOC(=O)c1ccc(C(=O)OCCCCCCCC(C)C)c(C(=O)OCCCCCCCC(C)C)c1
activation: inactive

molecule: c1ccc(-c2ccccn2)nc1
activation: inactive

molecule: CC(C)c1cccc(C(C)C)c1NC(=O)NS(=O)(=O)c1cc(C(C)(C)O)co1
activation: inactive

molecule: CC(=O)c1c(C)c([N+](=O)[O-])c(C(C)(C)C)c([N+](=O)[O-])c1C
activation: inactive

molecule: CCCCNC(=O)NCCCC
activation: inactive

molecule: CCCC(=O)OC
activation: inactive

molecule: O=[N+]([O-])c1ccc(O)c2ncccc12
activation: inactive

molecule: Oc1c(I)cc(Cl)c2cccnc12
activation: inactive

molecule: COc1cc(C=C2CCC/C(=C\c3ccc(O)c(OC)c3)C2=O)ccc1O
activation: inactive

molecule: CN(C)[C@@H](CCOc1cccc2ccccc12)c1ccccc1
activation: inactive

Any idea what its activation is? The molecule is "CCn1nc(C(=O)O)c(=O)c2cc3c(cc21)OCO3" inactive

----------
# method.notes: cAMP Responsive Elements (CRE) small molecule agonists, cell-based qHTS assay (AID 1963590); note: % is set by controls: 0 for no effect and ±100 for the full control effect
# assay.setup: CRE-bla HEK293T, beta-lactamase FRET ratio, 3 h; series mostly up to 92.4 µM
Results filed as inconclusive are left out. The source made the active and inactive calls. Calls follow the shape of the full dose curve.
assay.metric: activation

These solved cases illustrate the format of a correct answer.
compound: CC(O)CC(C)O (stereo not given)
activation: inactive

compound: O=C1OC(=O)c2cc(-c3ccc4c(c3)C(=O)OC4=O)ccc21
activation: inactive

compound: CC(=O)SCc1ccco1
activation: inactive

compound: CCCCC(CC)COC(=O)CCCCC(=O)OCc1ccccc1 (stereo not given)
activation: inactive

compound: CC(=O)Nc1cccc(N)c1
activation: inactive

compound: CC[C@H]1OC(=O)[C@H](C)[C@@H](O[C@H]2C[C@@](C)(OC)[C@@H](O)[C@H](C)O2)[C@H](C)[C@@H](O[C@@H]2O[C@H](C)C[C@H](N(C)C)[C@H]2O)[C@](C)(O)C[C@@H](C)/C(=N\OCOCCOC)[C@H](C)[C@@H](O)[C@]1(C)O
activation: inactive

compound: C=Cc1ccc(O)c(OC)c1
activation: inactive

compound: COc1cccc(N)c1
activation: inactive

compound: Nc1ccc([N+](=O)[O-])c(N)c1
activation: inactive

compound: CC(COc1ccc(C(C)(C)C)cc1)OS(=O)OCCCl (stereo not given)
activation: inactive

Any idea what its activation is? The compound is "CCOc1ccc(NC(C)=O)cc1N" inactive

Any idea what its activation is? The compound is "Cn1ccc2cc3c(cc21)CCN3C(=O)Nc1cccnc1" 13.1% [at 19 µM] (inactive)

Any idea what its activation is? The compound is CNCCC(Oc1ccc(C(F)(F)F)cc1)c1ccccc1 (stereo not given) inactive

Any idea what its activation is? The compound is "Cc1c(NC(=O)c2cccnc2)c(=O)n(-c2ccccc2)n1C" inactive

Any idea what its activation is? The compound is "O=C(O)CN(CCOCCOCCN(CC(=O)O)CC(=O)O)CC(=O)O" -1.26% [at 0.349 µM] (inactive)

Any idea what its activation is? The compound is "O=S(=O)(O)SSS(=O)(=O)O" inactive

Any idea what its activation is? The compound is "Cc1cccc(C(=O)O)c1O" inactive

Any idea what its activation is? The compound is "CCN(CC)CCNC(=O)COc1ccc(OC)cc1" inactive

Any idea what its activation is? The compound is "C[C@H]1[C@H]2CC[C@H]3[C@@H]4CC=C5C[C@@H](N(C)C)CC[C@]5(C)[C@H]4CC[C@]23CN1C" inactive

Any idea what its activation is? The compound is "COC(=O)CC(=O)C(C)(C)C" inactive
